system: PA-1; experiment: Primary qHTS to identify gynecologic anti-cancer compounds using libraries of approved drugs and bioactive compounds (AID 1345084); details: Gynecologic cancer cell panel viability, ATPlite luminescence, 48 h; series mostly up to 57.5 µM; also: nearly all actives have a fitted effect of over 55% in size; also: potency is read from the fitted curve at half-maximal effect
Results filed as inconclusive are left out. The source made the active and inactive calls. Calls follow the shape of the dose curve; as a rule, active = well fitted cell-killing curve with a large enough effect; inconclusive = small, poorly fitted or top-dose-only effect, or effect the other way; inactive = flat fitted curve, though single readings scatter.
measurementLabel: Potency

[[record]]
molsmiles = "CN[C@@H]1C[C@H]2O[C@@](C)([C@@H]1OC)n1c3ccccc3c3c4c(c5c6ccccc6n2c5c31)C(=O)NC4"
measurementlabel = "Potency"
experimentalvalue = "0.251 µM (active)"

[[record]]
molsmiles = "CC[C@H]1C2CC3[C@@H]4N(C)c5ccccc5[C@]45C[C@@H]([C@H]2[C@H]5O)N3[C@H]1O"
measurementlabel = "Potency"
experimentalvalue = "inactive"

[[record]]
molsmiles = "C=C1C(=O)O[C@@H]2[C@H]3C(=C)[C@@H](O)C[C@H]3C(=C)C[C@@H](O)[C@@H]12"
measurementlabel = "Potency"
experimentalvalue = "inactive"

[[record]]
molsmiles = "O=C1Nc2ccc3ncsc3c2/C1=C/c1cnc[nH]1"
measurementlabel = "Potency"
experimentalvalue = "7.94 µM (active)"

[[record]]
molsmiles = "CCCCCn1cc(C(=O)Oc2cccc3cccnc23)c2ccccc21"
measurementlabel = "Potency"
experimentalvalue = "inactive"


----------
assay: Confirmatory qHTS to identify inhibitors of SARS-CoV-2 cell entry (AID 1645844); details: SARS-CoV-2 pseudotyped particle cell entry, luciferase; series mostly up to 57.2 µM; also: potency is read from the fitted curve at half-maximal effect; nearly all actives have a fitted effect of over 45% in size
Results filed as inconclusive are left out. Active and inactive are the calls of the source. The call rests on the fitted dose curve.
Each entry below carries its reported Potency.
measurementLabel: Potency

[[record]]
compound = "CO[C@@H]1[C@@H](OC2OC(C)C(OC3CC(C)(O)C(OC(=O)CC(C)C)C(C)O3)C(N(C)C)C2O)[C@@H](CC=O)C[C@@H](C)C(=O)/C=C\\C2O[C@H]2C[C@@H](C)OC(=O)C[C@H]1OC(C)=O (stereo partly drawn)"
measurementlabel = "Potency"
experimentalvalue = "15.2 nM (active)"

[[record]]
compound = "COc1ccc(F)c(F)c1C(=O)c1cnc(NC2CCN(S(C)(=O)=O)CC2)nc1N"
measurementlabel = "Potency"
experimentalvalue = "68.1 nM (active)"

[[record]]
compound = "Cc1cc(C(=O)N2CCN(c3cccc(Cl)c3)CC2)n(-c2ccccc2)n1"
measurementlabel = "Potency"
experimentalvalue = "6810 nM (active)"

[[record]]
compound = "O=C(O)c1ccc(Nc2ncc3c(n2)-c2ccc(Cl)cc2C(c2c(F)cccc2F)=NC3)cc1"
measurementlabel = "Potency"
experimentalvalue = "242 nM (active)"

[[record]]
compound = "CCCCC(C)(C)[C@H](O)C=C[C@H]1[C@H](O)CC(=O)[C@H]1CC=CCCCC(=O)O"
measurementlabel = "Potency"
experimentalvalue = "17100 nM (active)"

[[record]]
compound = "CC(C)c1cnn2c(NCc3ccccc3)cc(N[C@@H](CO)[C@H](O)CO)nc12"
measurementlabel = "Potency"
experimentalvalue = "607 nM (active)"

[[record]]
compound = "COc1ccc(S(=O)(=O)Nc2cccnc2Nc2ccc(O)cc2)cc1"
measurementlabel = "Potency"
experimentalvalue = "1210 nM (active)"

[[record]]
compound = "CO[C@@H]1C(N(C)C(=O)c2ccccc2)C[C@H]2O[C@]1(C)n1c3ccccc3c3c4c(c5c6ccccc6n2c5c31)C(=O)NC4=O (stereo partly drawn)"
measurementlabel = "Potency"
experimentalvalue = "21500 nM (active)"

